# assayed.system: delta opioid receptor (NG108-15 cell membranes) (Mus musculus)
# Construct: NG108-15 cell membranes were purchased from Applied Cell Sciences (Rockville, Md.); host or cells: NG108-15 cell membranes (purchased)
# Sequence (P32300 whole entry): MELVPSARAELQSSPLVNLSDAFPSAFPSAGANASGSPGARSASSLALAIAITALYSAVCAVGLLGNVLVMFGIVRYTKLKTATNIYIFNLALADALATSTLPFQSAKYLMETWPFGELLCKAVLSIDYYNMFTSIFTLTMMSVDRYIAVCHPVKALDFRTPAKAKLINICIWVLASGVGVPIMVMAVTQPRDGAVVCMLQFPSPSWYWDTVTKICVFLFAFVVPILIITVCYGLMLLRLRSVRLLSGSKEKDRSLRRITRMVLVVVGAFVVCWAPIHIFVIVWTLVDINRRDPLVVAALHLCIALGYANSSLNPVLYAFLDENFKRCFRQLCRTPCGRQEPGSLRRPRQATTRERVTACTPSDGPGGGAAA
# experiment.notes: [35S]GTPγS binding assay in NG108-15 cell membranes (delta opioid)
# Assay type: biochemical
# measurement.conditions: read-out: delta GTPγS binding EC50
Recorded EC50 for the following compounds
Number only, in µM; omit the unit.

// solved cases for EC50 follow
Query: Fill in the blank: the reported EC50 of Oc1cccc2c1Oc1ccccc1C2=C1CC2CCC(C1)N2CCc1ccccc1 [Cpd 30] is ____.
Response: 2.96

Query: Same question, O=C(NCCc1ccccc1)c1cccc2c1Oc1ccccc1C2=C1CC2CCC(C1)N2 (single isomer, unassigned) [Cpd 56] this time
Response: 0.0401

Query: Same question, O=C(Nc1ccccc1)c1cccc2c1Oc1ccccc1C2=C1CC2CCC(C1)N2 (single isomer, unassigned) [Cpd 48] this time
Response: 0.101

Shifting focus to the compound that follows.
Query: Fill in the blank: the reported EC50 of CC=C(C)CN1C2CCC1CC(=C1c3ccccc3Oc3c(O)cccc31)C2 [Cpd 27] is ____.
Response: 0.0098

----------
# assayed.system: mu opioid receptor (Rattus norvegicus)
# Construct: the forebrains were homogenized in Tris buffer in a Teflon®-glass homogenizer; from tissue; host or cells: forebrain of male Wistar rats (particulate membrane preparation)
# experiment.notes: Rat brain mu opioid receptor binding assay
# measurement.conditions: rMOR (Ki, nM): Rat mu opioid receptor binding constant, rat forebrain membranes; [3H]DAMGO, 25° C., 2.5 h
Recorded Ki for the following compounds
Number only, in nM; omit the unit.

// solved cases for Ki follow
Query: For mu opioid receptor (Rattus norvegicus), provide Ki of NC(=O)c1cccc2c1Oc1ccccc1C2=C1CC2CCC(C1)N2 (single isomer, unassigned) [Cpd 37] please.
Response: 29

Query: Same question, CN1C2CCC1CC(=C1c3ccccc3Oc3c(O)cccc31)C2 [Cpd 19] this time
Response: 372

Query: Same question, CN1CCC(=C2c3ccccc3Oc3c(O)cccc32)CC1 [Cpd 18] this time
Response: 4610

Shifting focus to the compound that follows.
Query: For mu opioid receptor (Rattus norvegicus), provide Ki of Oc1cccc2c1Oc1ccccc1C2=C1CC2CCC(C1)N2Cc1cccnc1 (single isomer, unassigned) [Cpd 50] please.
Response: 0.68

----------
Recorded pEC50 for the following compounds
# assayed.system: delta opioid receptor (NG108-15 cell membranes) (Mus musculus)
# Construct: NG108-15 cell membranes were purchased from Applied Cell Sciences (Rockville, Md.); host or cells: NG108-15 cell membranes (purchased)
# experiment.notes: [35S]GTPγS binding assay in NG108-15 cell membranes (delta opioid)
# Assay type: biochemical
# measurement.conditions: read-out: delta GTPγS binding EC50
Schema: pEC50 number; meaning minus log10 of the concentration expressed in molar units.

Query: For delta opioid receptor (NG108-15 cell membranes) (Mus musculus), provide pEC50 of Oc1cccc2c1Oc1ccccc1C2=C1CC2CCC(C1)N2Cc1c[nH]c(-c2ccccc2)n1 [Cpd 28] please.
Response: 5.86

Query: Same question, Oc1cccc2c1Oc1ccccc1C2=C1CC2CCC(C1)N2Cc1ncc[nH]1 [Cpd 34] this time
Response: 8.48

Query: Same question, NC(=O)c1cccc2c1Oc1ccccc1C2=C1CC2CCC(C1)N2Cc1ccoc1 [Cpd 4] this time
Response: 8.03

----------
# assayed.system: delta opioid receptor (Rattus norvegicus, UniProt P33533)
# Construct: the forebrains were homogenized in Tris buffer in a Teflon®-glass homogenizer; from tissue; host or cells: forebrain of male Wistar rats (particulate membrane preparation)
# Sequence (P33533 whole entry): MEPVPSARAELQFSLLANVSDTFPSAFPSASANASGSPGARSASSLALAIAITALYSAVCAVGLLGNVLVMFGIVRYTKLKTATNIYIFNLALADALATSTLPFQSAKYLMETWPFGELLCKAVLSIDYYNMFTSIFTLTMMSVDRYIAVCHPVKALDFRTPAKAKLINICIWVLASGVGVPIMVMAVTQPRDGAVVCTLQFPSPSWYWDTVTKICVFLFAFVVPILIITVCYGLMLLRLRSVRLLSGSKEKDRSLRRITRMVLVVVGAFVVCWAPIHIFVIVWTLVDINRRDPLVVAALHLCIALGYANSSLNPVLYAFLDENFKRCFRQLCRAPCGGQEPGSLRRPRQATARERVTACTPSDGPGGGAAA
# experiment.notes: Rat brain delta opioid receptor binding assay
# measurement.conditions: rDOR (Ki, nM): Rat delta opioid receptor binding constant, rat forebrain membranes; [3H]DPDPE or [3H]naltrindole, 25° C., 2.5 h
# Protocol: Rat Brain Delta Opioid Receptor Binding Assay Procedure: Male, Wistar rats (150-250 g, VAF, Charles River, Kingston, N.Y.) were killed by CO2, and their brains removed and placed immediately in ice cold Tris HCl buffer (50 mM, pH 7.4). […] Analysis: The data from the scintillation counter were used to calculate either the % inhibition compared to control binding (when only a single concentration of test compound was evaluated) or a Ki value (when a range of concentrations was tested). […]
Recorded Ki for the following molecules
Number only, in nM; omit the unit.

// solved cases for Ki follow
Query: Fill in the blank: the reported Ki of NC(=O)c1cccc2c1Oc1ccccc1C2=C1CC2CCC(C1)N2 (single isomer, unassigned) [Cpd 39] is ____.
Response: 31.9

Query: Same question, Oc1cccc2c1Oc1ccccc1C2=C1CC2CCCC(C1)N2 this time
Response: 20.2

New cases:
Query: Fill in the blank: the reported Ki of O=C(N1C2CCC1CC(=C1c3ccccc3Oc3c(O)cccc31)C2)C(F)(F)F (single isomer, unassigned) [Cpd 6] is ____.
Response: 8500

Query: Same question, O=CNc1cccc2c1Oc1ccccc1C2=C1CC2CCC(C1)N2 this time
Response: 19.2

Query: Same question, Oc1cccc2c1Oc1ccccc1C2=C1CC2CCC(C1)N2 (single isomer, unassigned) [Cpd 9] this time
Response: 68.2

----------
# assayed.system: delta opioid receptor (Rattus norvegicus)
# Construct: the forebrains were homogenized in Tris buffer in a Teflon®-glass homogenizer; from tissue; host or cells: forebrain of male Wistar rats (particulate membrane preparation)
# experiment.notes: Rat brain delta opioid receptor binding assay
# measurement.conditions: rat forebrain membranes; [3H]DPDPE or [3H]naltrindole, 25° C., 2.5 h; read-out: rDOR (Ki, nM): Rat delta opioid receptor binding constant
Recorded Ki for the following molecules

Query: Fill in the blank: the reported Ki of N=C(NO)c1cccc2c1Oc1ccccc1C2=C1CC2CCC(C1)N2 (single isomer, unassigned) [Cpd 42] is ____.
Response: 237 nM

Query: Same question, NC(=O)c1cccc2c1Oc1ccccc1C2=C1C[C@H]2CC[C@@H](C1)N2C(=O)C(F)(F)F (single isomer, unassigned) [Cpd 38] this time
Response: 6440 nM

Query: Same question, N=C(NO)c1cccc2c1Oc1ccccc1C2=C1CC2CCC(C1)N2 (single isomer, unassigned) [Cpd 43] this time
Response: > 10000 nM

Query: Same question, Oc1cccc2c1Oc1ccccc1C2=C1CC2CCC(C1)N2Cc1csc2ccccc12 this time
Response: 137 nM

Query: Same question, CC=C(C)CN1C2CCC1CC(=C1c3ccccc3Oc3c(O)cccc31)C2 this time
Response: 0.35 nM

Query: Same question, Oc1cccc2c1Oc1ccccc1C2=C1CC2CCC(C1)N2Cc1cccs1 this time
Response: 0.046 nM

Query: Same question, NC(=O)c1cccc2c1Oc1ccccc1C2=C1C[C@H]2CC[C@@H](C1)N2C(=O)C(F)(F)F (single isomer, unassigned) [Cpd 36] this time
Response: 1790 nM

Query: Same question, COc1cccc2c1Oc1ccccc1C2=C1CC2CCC(C1)N2 this time
Response: 3800 nM

New cases:
Query: Fill in the blank: the reported Ki of Oc1cccc2c1Oc1ccccc1C2=C1CC2CCC(C1)N2CCc1ccccc1 is ____.
Response: 63.5 nM

Query: Same question, Oc1cccc2c1Oc1ccccc1C2=C1CC2CCC(C1)N2CC1CC1 this time
Response: 5.43 nM

Query: Same question, Oc1cccc2c1Oc1ccccc1C2=C1CC2CCC(C1)N2Cc1c[nH]c(-c2ccccc2)n1 this time
Response: 192 nM

Query: Same question, Oc1cc(CN2C3CCC2CC(=C2c4ccccc4Oc4c(O)cccc42)C3)ccn1 this time
Response: 1.5 nM

Query: Same question, Oc1cccc2c1Oc1ccccc1C2=C1CC2CCC(C1)N2Cc1ncc[nH]1 this time
Response: 0.028 nM

Query: Same question, Oc1cccc2c1Oc1ccccc1C2=C1CC2CCC(C1)N2Cc1cccc2cnccc12 this time
Response: 180 nM

Query: Same question, Oc1cccc2c1Oc1ccccc1C2=C1CC2CCC(C1)N2Cc1ccncc1 this time
Response: 0.97 nM

----------
# assayed.system: mu opioid receptor (Rattus norvegicus, UniProt P33535)
# Construct: the forebrains were homogenized in Tris buffer in a Teflon®-glass homogenizer; from tissue; host or cells: forebrain of male Wistar rats (particulate membrane preparation)
# Sequence (P33535 whole entry): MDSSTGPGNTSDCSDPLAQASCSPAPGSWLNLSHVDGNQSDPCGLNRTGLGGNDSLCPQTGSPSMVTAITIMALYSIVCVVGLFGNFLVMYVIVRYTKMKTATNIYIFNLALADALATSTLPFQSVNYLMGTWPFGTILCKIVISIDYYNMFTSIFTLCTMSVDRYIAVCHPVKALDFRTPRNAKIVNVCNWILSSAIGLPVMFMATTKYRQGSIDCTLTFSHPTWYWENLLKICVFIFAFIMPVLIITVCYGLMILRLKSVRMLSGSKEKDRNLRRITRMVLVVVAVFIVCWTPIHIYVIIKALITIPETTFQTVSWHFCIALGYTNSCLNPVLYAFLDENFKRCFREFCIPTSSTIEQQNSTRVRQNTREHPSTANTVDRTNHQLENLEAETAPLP
# experiment.notes: Rat brain mu opioid receptor binding assay
# measurement.conditions: rMOR (Ki, nM): Rat mu opioid receptor binding constant, rat forebrain membranes; [3H]DAMGO, 25° C., 2.5 h
Threshold-based label: Ki under 7 nM gives rule met, Ki not under 7 nM gives rule not met.

Answered examples (4):
Query: Just wondering, is Ki of CN1C2CCC1CC(=C1c3ccccc3Oc3c(O)cccc31)C2 (single isomer, unassigned) [Cpd 52] below 7 nM?
Response: rule not met

Query: Same question, Oc1cccc2c1Oc1ccccc1C2=C1CC2CCC(C1)N2 (single isomer, unassigned) [Cpd 8] this time
Response: rule met

Query: Same question, Oc1cccc2c1Oc1ccccc1C2=C1CC2CCC(C1)N2Cc1cccnc1 (single isomer, unassigned) [Cpd 49] this time
Response: rule not met

Query: Same question, Oc1cccc2c1Oc1ccccc1C2=C1CC2CCCC(C1)N2 this time
Response: rule not met

Then there is this compound:
Query: Just wondering, is Ki of Oc1cccc2c1Oc1ccccc1C2=C1CC2CCC(C1)N2Cc1ccccc1 [Cpd 32] below 7 nM?
Response: rule met
